molecular target: FL_Reg1 (full-length human Regnase-1) phosphorylation by IKKβ (Homo sapiens); construct: made in house; host or cells: Expi293 cells; experiment: Regnase-1 phosphorylation inhibition by compounds (AlphaScreen), IKKβ, full-length Regnase-1; format: biochemical; settings: Table 11; 2 nM Regnase-1; AlphaScreen; read-out: 50% inhibition concentration, Regnase-1 phosphorylation, FL_Reg1, IKKβ
Sequence (Q5D1E8 whole entry): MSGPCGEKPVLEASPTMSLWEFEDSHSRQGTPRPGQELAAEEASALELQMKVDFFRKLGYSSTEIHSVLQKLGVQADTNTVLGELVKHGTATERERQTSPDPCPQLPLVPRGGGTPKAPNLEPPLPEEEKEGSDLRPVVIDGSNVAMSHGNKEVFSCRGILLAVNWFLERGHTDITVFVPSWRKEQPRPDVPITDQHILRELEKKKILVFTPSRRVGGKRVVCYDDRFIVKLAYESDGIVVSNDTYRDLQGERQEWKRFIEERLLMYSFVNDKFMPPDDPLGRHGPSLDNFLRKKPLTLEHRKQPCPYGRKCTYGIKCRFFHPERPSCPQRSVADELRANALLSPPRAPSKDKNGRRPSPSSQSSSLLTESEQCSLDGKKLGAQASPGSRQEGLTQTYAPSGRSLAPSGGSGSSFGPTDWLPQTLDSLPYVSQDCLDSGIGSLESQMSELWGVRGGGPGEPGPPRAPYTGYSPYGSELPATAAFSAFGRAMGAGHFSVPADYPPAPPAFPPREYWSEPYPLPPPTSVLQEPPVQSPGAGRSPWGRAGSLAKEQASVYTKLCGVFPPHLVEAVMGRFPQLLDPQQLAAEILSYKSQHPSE
pIC50: −log10 of the molar value. Residues, ends and D or L forms follow the SMILES beside them.
Below, each entry is listed alongside its reported pIC50.

compound: CC[C@H](C)[C@@H]1NC(=O)[C@H](CCCNC(=N)N)NC(=O)[C@H](Cc2ccc(O)cc2)NC(=O)[C@H](Cc2c[nH]c3ccccc23)NC(=O)[C@H](C)NC(=O)[C@H](CO)NC(=O)[C@H](C)NC(=O)[C@H](Cc2c[nH]cn2)NC(=O)[C@H](CCCCN)NC(=O)[C@@H](C)N(C)C(=O)C[C@@H](C(=O)N2CCCC2)NC(=O)[C@H](Cc2c[nH]c3ccccc23)NC1=O [PP3] (HELM PEPTIDE1{[C[C@H](C(=O)[*:2])N(C)[*:1]].K.H.A.S.A.W.Y.R.I.W.D.[C1CCN([*:1])C1]}$PEPTIDE1,PEPTIDE1,1:R1-12:R3$$$V2.0)
pIC50: 5.34

compound: CC[C@H](C)[C@@H]1NC(=O)[C@H](CC(N)=O)NC(=O)[C@H](Cc2ccc(O)cc2)NC(=O)[C@H](Cc2c[nH]c3ccccc23)NC(=O)[C@H](C)NC(=O)[C@H](CC(N)=O)NC(=O)[C@H](CO)NC(=O)[C@H](Cc2c[nH]cn2)NC(=O)[C@H](C)N(C)C(=O)C[C@@H](C(=O)N2CCCC2)NC(=O)[C@H](Cc2c[nH]c3ccccc23)NC1=O [PP5] (HELM PEPTIDE1{[meA].H.S.N.A.W.Y.N.I.W.D.[C1CCN([*:1])C1]}$PEPTIDE1,PEPTIDE1,1:R1-11:R3$$$V2.0)
pIC50: 4.63
